DC50 for assorted compounds
# tested_on: ERα in MCF7 cells (Homo sapiens (Human), UniProt P03372)
# Sequence (P03372 whole entry): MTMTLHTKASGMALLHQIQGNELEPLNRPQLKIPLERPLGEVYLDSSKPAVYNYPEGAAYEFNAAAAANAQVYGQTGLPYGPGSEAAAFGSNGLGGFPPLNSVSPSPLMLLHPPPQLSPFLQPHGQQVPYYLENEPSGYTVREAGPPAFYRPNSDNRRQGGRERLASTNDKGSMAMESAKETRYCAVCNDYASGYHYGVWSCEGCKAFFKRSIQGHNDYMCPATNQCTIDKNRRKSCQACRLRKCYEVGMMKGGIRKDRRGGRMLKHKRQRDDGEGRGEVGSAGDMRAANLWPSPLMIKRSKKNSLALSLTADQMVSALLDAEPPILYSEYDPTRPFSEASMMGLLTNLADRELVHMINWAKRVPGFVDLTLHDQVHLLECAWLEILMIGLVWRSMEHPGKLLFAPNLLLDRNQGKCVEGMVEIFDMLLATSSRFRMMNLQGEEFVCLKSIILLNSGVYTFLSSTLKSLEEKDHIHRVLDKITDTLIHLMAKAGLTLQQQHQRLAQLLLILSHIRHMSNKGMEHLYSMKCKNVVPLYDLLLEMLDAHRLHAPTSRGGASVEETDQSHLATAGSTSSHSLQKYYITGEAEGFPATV
# test_details: Test C: estrogen receptor degradation activity, ERα in cell western assay in MCF7 cells
# Type: cell-based
# measurement_context: 4 hours post compound addition, ERα in cell western, read-out: Degradation IC50
quantity_measured: DC50 (pM)

In [3]: df
Out[3]:
                                    compound                                 tested_on  quantity_measured  readout_number
 0  Cc1cc(C2=C(c3ccc(O[C@H]4CCN(CCCF)C4)nc3)c3ccc(O)c(F)c3CCC2)ccc1Cl  ERα in MCF7 cells (Homo sapiens (Human), UniProt P03372)               DC50             500
 1  Cc1ccc(C2=C(c3cnc(O[C@H]4CCN(CCCF)C4)nc3)c3ccc(O)cc3SC2)c(F)c1  ERα in MCF7 cells (Homo sapiens (Human), UniProt P03372)               DC50            1000
 2  Oc1ccc2c(c1)SCC(c1ccc3c(c1)OCCO3)=C2c1ccc(O[C@H]2CCN(CCCF)C2)cc1  ERα in MCF7 cells (Homo sapiens (Human), UniProt P03372)               DC50             300
 3  Oc1ccc2c(c1)C(c1ccc(O[C@H]3CCN(CCCF)C3)cc1)=C(c1ccc3[nH]ccc3c1)CC2  ERα in MCF7 cells (Homo sapiens (Human), UniProt P03372)               DC50             500
 4  Oc1ccc2c(c1)SCC(c1ccc(Cl)cc1F)=C2c1ccc(O[C@H]2CCN(CCCF)C2)cc1  ERα in MCF7 cells (Homo sapiens (Human), UniProt P03372)               DC50             600
 5  Oc1ccc2c(c1)OCCC(c1cccc(F)c1Cl)=C2c1ccc(O[C@H]2CCN(CCCF)C2)cc1  ERα in MCF7 cells (Homo sapiens (Human), UniProt P03372)               DC50             200
 6  Oc1ccc2c(c1)C(c1ccc(O[C@H]3CCN(CCCF)C3)cc1)=C(c1ccc(F)c(Cl)c1)CCS2  ERα in MCF7 cells (Homo sapiens (Human), UniProt P03372)               DC50            4000
 7  [2H]C([2H])([2H])Oc1ccc(C2=C(c3ccc(O[C@H]4CCN(CCCF)C4)cc3)c3ccc(O)cc3SCC2)c(F)c1  ERα in MCF7 cells (Homo sapiens (Human), UniProt P03372)               DC50             400
 8  Cc1c(Cl)cccc1C1=C(c2ccc(O[C@H]3CCN(CCCF)C3)cc2)c2ccc(O)c(F)c2OCC1  ERα in MCF7 cells (Homo sapiens (Human), UniProt P03372)               DC50             200
 9  Cc1noc(C)c1C1=C(c2ccc(O[C@H]3CCN(CCCF)C3)cc2)c2ccc(O)cc2SCC1  ERα in MCF7 cells (Homo sapiens (Human), UniProt P03372)               DC50             200
10  Oc1ccc2c(c1)SCC(c1ccc(OC(F)(F)F)cc1)=C2c1ccc(O[C@H]2CCN(CCCF)C2)cc1  ERα in MCF7 cells (Homo sapiens (Human), UniProt P03372)               DC50            1000
11  Cc1ccc(C2=C(c3ccc(O[C@H]4CCN(CCCF)C4)cc3)c3ccc(O)cc3SC2)c(F)c1  ERα in MCF7 cells (Homo sapiens (Human), UniProt P03372)               DC50            1000
12  CCOc1ccc(C2=C(c3ccc(O[C@H]4CCN(CCCF)C4)cc3)c3ccc(O)cc3SC2)c(F)c1  ERα in MCF7 cells (Homo sapiens (Human), UniProt P03372)               DC50             800
13  CCOc1ccc(C2=C(c3ccc(O[C@H]4CCN(CCCF)C4)cc3)c3ccc(O)cc3SCC2)cc1F  ERα in MCF7 cells (Homo sapiens (Human), UniProt P03372)               DC50             700
14  [O-][S+]1CCC(c2ccc(OC(F)(F)F)cc2)=C(c2ccc(O[C@H]3CCN(CCCF)C3)cc2)c2ccc(O)cc21 (single isomer, unassigned) [Example 226]  ERα in MCF7 cells (Homo sapiens (Human), UniProt P03372)               DC50          103000

---

IC50 for assorted compounds
# tested_on: His6-ERα298-554 Y537S mutant (ERα ligand-binding domain) (Homo sapiens (Human), UniProt P03372, Y537S)
# Sequence (P03372 298-554 Y537S): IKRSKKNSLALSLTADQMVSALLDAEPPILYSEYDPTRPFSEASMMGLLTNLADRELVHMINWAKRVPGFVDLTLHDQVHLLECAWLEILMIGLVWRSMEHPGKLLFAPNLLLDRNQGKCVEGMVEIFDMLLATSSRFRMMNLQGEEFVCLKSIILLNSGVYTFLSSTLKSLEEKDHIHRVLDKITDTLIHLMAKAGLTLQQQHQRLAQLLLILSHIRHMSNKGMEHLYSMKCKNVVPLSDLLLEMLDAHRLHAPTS
# test_details: Test A: biochemical antagonist activity, LanthaScreen TR-FRET ERα coactivator assay, Y537S mutant
# measurement_context: asterisk (*): protocol using 10 nM estradiol; read-out: Antagonism Y537S IC50
quantity_measured: IC50 (nM)

In [3]: df
Out[3]:
                           structure_string  readout_number
0  Oc1ccc2c(c1)SCC(c1ccc(CF)cc1)=C2c1ccc(O[C@H]2CCN(CCCF)C2)cc1             437
1  Nc1ccc(C2=C(c3ccc(O[C@H]4CCN(CCCF)C4)cc3)c3ccc(O)cc3SCC2)c(F)n1              24
2  Oc1ccc2c(c1)SCCC(c1ccc(F)nc1F)=C2c1ccc(O[C@H]2CCN(CCCF)C2)cc1              86
3  CCOc1ccc(C2=C(c3ccc(O[C@H]4CCN(CCCF)C4)nc3)c3ccc(O)cc3SCC2)c(F)n1               5

---

# tested_on: ERα in MCF7 cells (Homo sapiens (Human))
# test_details: Test C: estrogen receptor degradation activity, ERα in cell western assay in MCF7 cells
# Format: cell-based
# measurement_context: at 3 μM, 4 hours, relative to fulvestrant
% Degradation at 3 μM for assorted molecules
quantity_measured: % Degradation at 3 μM (%)

                                    molecule      quantity_measured  readout_number
 0  CC(C)(C)c1ccc(C2=C(c3ccc(O[C@H]4CCN(CCCF)C4)cc3)c3ccc(O)cc3SC2)c(F)n1 [Example 75]  % Degradation at 3 μM              92
 1  Oc1ccc2c(c1F)CCCC(c1ccc(Cl)cc1Cl)=C2c1ccc(O[C@H]2CCN(CCCF)C2)nc1 [Example 245]  % Degradation at 3 μM              87
 2  Oc1cccc(C2=C(c3ccc(O[C@H]4CCN(CCCF)C4)cc3)c3ccc(O)cc3OCC2)c1 [Example 91]  % Degradation at 3 μM              91
 3  Oc1ccc2c(c1Cl)OCCC(c1ccc3c(c1)NCC3)=C2c1ccc(O[C@H]2CCN(CCCF)C2)cc1 [Example 125]  % Degradation at 3 μM              84
 4  CC/C(=C(/c1ccc(O[C@H]2CCN(CCCF)C2)cc1)c1ccc2[nH]ncc2c1)c1ccc(F)cc1Cl [Example 255]  % Degradation at 3 μM              92
 5  Cc1ccc(C2=C(c3ccc(O[C@H]4CCN(CCCF)C4)cc3)c3cc(O)ccc3SCC2)c(F)c1 [Example 171]  % Degradation at 3 μM              85
 6  Oc1ccc2c(c1)SCC(c1ccc3c(c1)OCCO3)=C2c1ccc(O[C@H]2CCN(CCCF)C2)cc1 [Example 28]  % Degradation at 3 μM              80
 7  CCOc1ccc(C2=C(c3ccc(O[C@H]4CCN(CCCF)C4)cc3)c3ccc(O)cc3SCC2)c(F)c1Cl [Example 221]  % Degradation at 3 μM              84
 8  Oc1ccc2c(c1)OCC(c1ccc(Cl)cc1Cl)=C2c1ccc(O[C@H]2CCN(CCCF)C2)cc1 [Example 81]  % Degradation at 3 μM              77
 9  NS(=O)(=O)c1ccc(C2=C(c3ccc(O[C@H]4CCN(CCCF)C4)cc3)c3ccc(O)cc3SC2)cc1 [Example 42]  % Degradation at 3 μM              89
10  CC(C)(C)OC(=O)Nc1ccc(C2=C(c3ccc(O[C@H]4CCN(CCCF)C4)cc3)c3ccc(O)cc3SC2)c(F)n1 [Example 65]  % Degradation at 3 μM              71
11  Oc1ccc2c(c1)SCCC(c1ccc(OC(F)F)cc1F)=C2c1ccc(O[C@H]2CCN(CCCF)C2)cc1 [Example 213]  % Degradation at 3 μM              86
12  CC1(C)Cc2cc(C3=C(c4ccc(O[C@H]5CCN(CCCF)C5)nc4)c4ccc(O)cc4CCC3)ccc2N1 [Example 242]  % Degradation at 3 μM              83
13  Cc1cc(C2=C(c3ccc(O[C@H]4CCN(CCCF)C4)nc3)c3ccc(O)c(F)c3CCC2)ccc1Cl [Example 250]  % Degradation at 3 μM              87
14  Oc1ccc2c(c1)CCCC(c1ccc(OC(F)(F)F)cc1)=C2c1ccc(N[C@H]2CCN(CCCF)C2)cc1 [Example 87]  % Degradation at 3 μM              83
15  COc1ccc(C2=C(c3ccc(O[C@H]4CCN(CCCF)C4)cc3)c3ccc(O)cc3SC2)c(F)n1 [Example 45]  % Degradation at 3 μM              87
16  CC(C)(C)c1ccc(C2=C(c3ccc(O[C@H]4CCN(CCCF)C4)cc3)c3cc(O)ccc3CC2)cc1 [Example 11]  % Degradation at 3 μM              80
17  Oc1ccc2c(c1)SCCC(c1ccc3c(c1)OC(F)(F)O3)=C2c1ccc(O[C@H]2CCN(CCCF)C2)cc1 [Example 193]  % Degradation at 3 μM              91
18  O=C1COc2ccc(C3=C(c4ccc(O[C@H]5CCN(CCCF)C5)cc4)c4ccc(O)cc4SC3)cc2N1 [Example 38]  % Degradation at 3 μM              86
19  CCOc1ccc(C2=C(c3ccc(O[C@H]4CCN(CCCF)C4)cc3)c3ccc(O)cc3OCC2)cn1 [Example 127]  % Degradation at 3 μM              90
20  Oc1ccc2c(c1)C(c1ccc(N[C@H]3CCN(CCCF)C3)cc1)=C(c1ccc(F)cc1Cl)CC2 [Example 84]  % Degradation at 3 μM              78
21  CCN(CC)c1ccc(C2=C(c3ccc(O[C@H]4CCN(CCCF)C4)cc3)c3ccc(O)cc3SCC2)c(F)c1 [Example 224]  % Degradation at 3 μM              85
22  CCOc1ccc(C2=C(c3ccc(O[C@H]4CCN(CCCF)C4)cc3)c3ccc(O)cc3SC2)c(C)c1 [Example 39]  % Degradation at 3 μM              86
23  CCOc1ccc(C2=C(c3ccc(O[C@H]4CCN(CCCF)C4)cc3)c3ccc(O)cc3SCC2)c(F)c1F [Example 217]  % Degradation at 3 μM              87
24  Cc1ccc(C2=C(c3ccc(O[C@H]4CCN(CCCF)C4)cc3)c3ccc(C(=O)O)cc3SC2)c(F)c1 [Example 25]  % Degradation at 3 μM              93
25  CCOc1ccc(C2=C(c3ccc(O[C@H]4CCN(CCCF)C4)cc3)c3ccc(O)cc3OCC2)c(C)c1 [Example 119]  % Degradation at 3 μM              91
26  Oc1ccc2c(c1)C(c1ccc(O[C@H]3CCN(CCCF)C3)cc1)=C(c1ccc(F)c(Cl)c1)CCS2 [Example 174]  % Degradation at 3 μM              81
27  CC1(C)Cc2cc(C3=C(c4ccc(O[C@H]5CCN(CCCF)C5)cc4)c4ccc(O)cc4SC3)ccc2O1 [Example 32]  % Degradation at 3 μM              87
28  CCOc1cc(C2=C(c3ccc(O[C@H]4CCN(CCCF)C4)cc3)c3ccc(O)cc3SCC2)ccc1F [Example 195]  % Degradation at 3 μM              97
